- TEST SUMMARY: in vitro
- MEASUREMENT PARAMETERS: human, Caco-2, pH 7.4
QUANTITY: Papp A→B at 2 h, 3 μM (×10⁻⁶ cm/s)

INSERT INTO results (molecule, unit_string, value_measured) VALUES
  ('[2H]C([2H])([2H])NC(=O)c1nnc(NC(=O)C2CC2)cc1Nc1cccc(-c2noc(COC(C)C)n2)c1OC [Example 2]', '×10⁻⁶ cm/s', 66.1),
  ('[2H]C([2H])([2H])NC(=O)c1nnc(NC(=O)C2CC2)cc1Nc1cccc(-c2cnn(C3CC3)c2)c1OC [Example 28]', '×10⁻⁶ cm/s', 27.4),
  ('[2H]C([2H])([2H])NC(=O)c1nnc(NC(=O)C2CC2)cc1Nc1cccc(-c2ccc(C(C)(C)C#N)cn2)c1OC [Example 24]', '×10⁻⁶ cm/s', 14.8),
  ('[2H]C([2H])([2H])NC(=O)c1nnc(NC(=O)C2C[C@H]2C)cc1Nc1cccc(-c2nnn(C)n2)c1OC (mixture of isomers) [Example 25]', '×10⁻⁶ cm/s', 23.3),
  ('[2H]C([2H])([2H])NC(=O)c1nnc(NC(=O)C2CC2)cc1Nc1cccc(-c2ccsn2)c1OC [Example 35]', '×10⁻⁶ cm/s', 42.2),
  ('[2H]C([2H])([2H])NC(=O)c1nnc(NC(=O)C2CC2)cc1Nc1cccc(-c2cocn2)c1OC [Example 6]', '×10⁻⁶ cm/s', 78.5),
  ('[2H]C([2H])([2H])NC(=O)c1nnc(NC(=O)C2CC2)cc1Nc1cccc(-c2cnc(C)cn2)c1OC [Example 23]', '×10⁻⁶ cm/s', 17.4);
